Values from paper PMC9482650

TARGET_OR_TEST_SYSTEM: PARD3_3, Q8TEW0
Sequence (Q8TEW0 582-685): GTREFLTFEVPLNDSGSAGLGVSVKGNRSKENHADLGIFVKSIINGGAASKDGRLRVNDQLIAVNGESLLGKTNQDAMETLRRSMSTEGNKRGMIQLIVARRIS
PROTOCOL_SUMMARY: holdup assay
Parameters: key: below the threshold = too weak to quantify, mostly under pKd 3.1 to 4
SETTINGS: plain residues with an end cap or a label only (N-terminal biotin on a linker: ado-ado)

[
  {
    "BINDER": "NNMAFETTHF [SLC5A12, Q1EHB4]",
    "pKd": "below the threshold"
  },
  {
    "BINDER": "LPPPESESKV [KCNJ9, Q92806]",
    "pKd": "below the threshold"
  },
  {
    "BINDER": "ELKAEDEVQI [DCHS2, Q6V1P9]",
    "pKd": 4.74
  },
  {
    "BINDER": "THREVKFTSL [CD46, P15529]",
    "pKd": "below the threshold"
  },
  {
    "BINDER": "NKSEPFLTWL [WWTR1, Q9GZV5]",
    "pKd": 4.78
  },
  {
    "BINDER": "PDSYHRRDFW [U2AF2, P26368]",
    "pKd": "below the threshold"
  },
  {
    "BINDER": "MQILSKPEFI [NPSR1, Q6W5P4]",
    "pKd": 3.98
  },
  {
    "BINDER": "GNDPDRGTSI [GRID2, O43424]",
    "pKd": "below the threshold"
  },
  {
    "BINDER": "VISSDDLTEL [CAPN6, Q9Y6Q1]",
    "pKd": 3.84
  },
  {
    "BINDER": "QLKSGRDSTV [TMEM178A, Q8NBL3]",
    "pKd": 3.5
  },
  {
    "BINDER": "PSDSVGKDVF [EGLN1, Q9GZT9]",
    "pKd": "below the threshold"
  },
  {
    "BINDER": "NISARRFTLC [FAM167B, Q9BTA0]",
    "pKd": "below the threshold"
  },
  {
    "BINDER": "THHRKIHTRV [ZNF599, Q96NL3]",
    "pKd": "below the threshold"
  },
  {
    "BINDER": "PEKVSNTTVV [IGSF5, Q9NSI5]",
    "pKd": "below the threshold"
  },
  {
    "BINDER": "PALKNGQYWV [CSPG4, Q6UVK1]",
    "pKd": 3.96
  },
  {
    "BINDER": "RSPVATATSC [DUSP5, Q16690]",
    "pKd": "below the threshold"
  },
  {
    "BINDER": "PLATCDETSI [SEMA4F, O95754]",
    "pKd": 3.9
  },
  {
    "BINDER": "KIEDVEITLV [FCHSD2, O94868]",
    "pKd": 3.99
  },
  {
    "BINDER": "KKTPVSRSHL [SLC22A3, O75751]",
    "pKd": "below the threshold"
  },
  {
    "BINDER": "FVFESRKEIL [TBPL1, P62380]",
    "pKd": "below the threshold"
  },
  {
    "BINDER": "PAALPESTHM [SLC9A3, P48764]",
    "pKd": "below the threshold"
  },
  {
    "BINDER": "TKDKVQETQI [LRRC4, Q9HBW1]",
    "pKd": 3.81
  },
  {
    "BINDER": "ATKDKKITTV [EXOC4, Q96A65]",
    "pKd": "below the threshold"
  },
  {
    "BINDER": "MLPANYVEAI [NEB, P20929]",
    "pKd": "below the threshold"
  },
  {
    "BINDER": "QKASRNESTF [POLR1D, P0DPB6]",
    "pKd": "below the threshold"
  },
  {
    "BINDER": "SQDPKKPSRV [CBY2, Q8NA61]",
    "pKd": "below the threshold"
  },
  {
    "BINDER": "RGKNRRQSIF [CDK18, Q07002]",
    "pKd": "below the threshold"
  },
  {
    "BINDER": "IKLETKKTKL [SLC15A2, Q16348]",
    "pKd": "below the threshold"
  },
  {
    "BINDER": "RDYTQSSSSL [GRM5, P41594]",
    "pKd": "below the threshold"
  },
  {
    "BINDER": "TNSKQGETTV [FZD1, Q9UP38]",
    "pKd": 3.58
  },
  {
    "BINDER": "AKADAQESRL [PLCB2, Q00722]",
    "pKd": 3.48
  },
  {
    "BINDER": "SGDGKTSVWI [GJC1, P36383]",
    "pKd": 4.62
  }
]
